Sourced from patent US9657009B2

The reader will find reported IC50 values listed item by item below.
Experimental System: IRAK4 (Homo sapiens (Human))
Assay Comment: IRAK4 Inhibition Assay
Type: biochemical
Applied Conditions: ATP 500 μM; IRAK4 0.6 nM; 60 min at room temperature; read-out: IRAK4 IC50
Readout Kind: IC50

INSERT INTO measurements (compound, test_result) VALUES
  ('CCNc1cc(Nc2ncc(C#N)cc2Cl)ncc1C(=O)NC[C@@H](F)C(C)(C)O [Example 51]', '4.6 nM'),
  ('CC(C)(O)[C@H](F)CNC(=O)c1cnc(Nc2ncc(C(N)=O)cc2Cl)cc1NC1CCC(F)C1 (stereo partly shown) [Example 38]', '4.5 nM'),
  ('CC(C)Nc1cc(Nc2ncc(C#N)cc2Cl)ncc1C(=O)NC[C@@H](F)C(C)(C)O [Example 12]', '1.9 nM'),
  ('CC(C)(O)[C@H](F)CNC(=O)c1cnc(Nc2ncncc2Cl)cc1NC1CCCOC1 (stereo partly shown) [Example 96]', '11.2 nM');

---

Experimental System: IRAK4 (Homo sapiens (Human))
Assay Comment: IRAK4 Inhibition Assay
Type: biochemical
Applied Conditions: ATP 500 μM; IRAK4 0.6 nM; 60 min at room temperature; read-out: IRAK4 IC50
Readout Kind: IC50 (nM)

INSERT INTO measurements (compound, unit_tag, test_result) VALUES
  ('CC(C)Nc1cc(Nc2ncncc2F)ncc1C(=O)NC[C@@H](F)C(C)(C)O', 'nM', 8.1),
  ('CNC(=O)c1cnc(Nc2ccc(C#N)cn2)cc1N[C@@H](c1ccccc1)[C@H](O)CO', 'nM', 53.9),
  ('CC(C)Nc1cc(Nc2ncc(C#N)cc2Cl)ncc1C(=O)NC[C@H](F)C(C)(C)O', 'nM', 8.6),
  ('CC(C)Nc1cc(Nc2ncc(C#N)cc2F)ncc1C(=O)NCCc1ccc(S(N)(=O)=O)cc1', 'nM', 6.6),
  ('CC(C)(O)[C@H](F)CNC(=O)c1cnc(Nc2ncc(F)cc2F)cc1NC1CCCOC1 (some centres unmarked) [Example 110]', 'nM', 15.7),
  ('CCNc1cc(Nc2ncc(C#N)cc2F)ncc1C(=O)NC[C@@H](F)C(C)(C)O', 'nM', 3.8),
  ('CC(C)(O)[C@H](F)CNC(=O)c1cnc(Nc2ncc(C#N)cc2Cl)cc1N[C@H]1CC[C@@](C)(O)CC1', 'nM', 5.3),
  ('CC(C)(O)[C@H](F)CNC(=O)c1cnc(Nc2ncc(C#N)cn2)cc1N[C@H]1CCC[C@@H]1F [Example 54]', 'nM', 5.9);

---

Experimental System: IRAK4 (Homo sapiens (Human), UniProt Q9NWZ3)
Sequence (Q9NWZ3 whole entry, species assumed): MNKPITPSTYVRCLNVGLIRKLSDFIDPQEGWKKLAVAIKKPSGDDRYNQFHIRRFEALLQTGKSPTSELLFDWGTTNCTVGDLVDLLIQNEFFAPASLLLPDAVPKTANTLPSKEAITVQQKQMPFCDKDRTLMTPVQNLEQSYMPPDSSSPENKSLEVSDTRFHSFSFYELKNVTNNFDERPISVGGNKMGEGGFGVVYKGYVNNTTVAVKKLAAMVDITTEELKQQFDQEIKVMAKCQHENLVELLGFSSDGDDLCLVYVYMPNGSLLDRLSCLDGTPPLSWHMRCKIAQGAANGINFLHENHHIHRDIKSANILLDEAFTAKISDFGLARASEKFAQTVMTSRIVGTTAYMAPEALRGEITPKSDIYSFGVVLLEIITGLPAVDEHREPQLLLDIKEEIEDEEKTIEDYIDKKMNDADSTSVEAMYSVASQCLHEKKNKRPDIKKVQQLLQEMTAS
Assay Comment: IRAK4 Inhibition Assay
Format: biochemical
Applied Conditions: ATP 500 μM; IRAK4 0.6 nM; 60 min at room temperature; read-out: IRAK4 IC50
pIC50: −log10 of the molar value.
Readout Kind: pIC50

INSERT INTO assay_data (compound, experimental_system, test_result) VALUES
  ('CC(C)(O)[C@H](F)CNC(=O)c1cnc(Nc2ncc(C#N)cc2F)cc1Nc1cccc(CO)c1', 'IRAK4 (Homo sapiens (Human), UniProt Q9NWZ3)', 8.48),
  ('CC(C)Nc1cc(Nc2ncc(C#N)c(NC(C)C)n2)ncc1C(=O)NC[C@@H](F)C(C)(C)O', 'IRAK4 (Homo sapiens (Human), UniProt Q9NWZ3)', 8.19),
  ('CC(Nc1cc(Nc2ncc(C#N)cn2)ncc1C(=O)NC[C@@H](F)C(C)(C)O)C1CC1 (stereo partly shown)', 'IRAK4 (Homo sapiens (Human), UniProt Q9NWZ3)', 7.99),
  ('CC(C)(O)[C@H](F)CNC(=O)c1cnc(Nc2ncc(Cl)cc2F)cc1NC1CC1', 'IRAK4 (Homo sapiens (Human), UniProt Q9NWZ3)', 8.24),
  ('Cn1nnnc1-c1ccc(Nc2cc(Nc3ncc(C#N)cn3)ncc2C(=O)NC[C@@H](F)C(C)(C)O)cc1', 'IRAK4 (Homo sapiens (Human), UniProt Q9NWZ3)', 7.91),
  ('CC(C)(O)[C@H](F)CNC(=O)c1cnc(Nc2ccncn2)cc1NC1CC1', 'IRAK4 (Homo sapiens (Human), UniProt Q9NWZ3)', 7.88),
  ('CC(C)(O)[C@H](F)CNC(=O)c1cnc(Nc2ncc(C#N)cc2Cl)cc1NC1CCOCC1F (stereo partly shown)', 'IRAK4 (Homo sapiens (Human), UniProt Q9NWZ3)', 8.52),
  ('CC(=O)N[C@H](C)CCNC(=O)c1cnc(Nc2ncc(C#N)cc2Cl)cc1NC(C)C', 'IRAK4 (Homo sapiens (Human), UniProt Q9NWZ3)', 8.82),
  ('CCCNc1cc(Nc2ncc(C#N)cc2F)ncc1C(=O)NC[C@@H](F)C(C)(C)O', 'IRAK4 (Homo sapiens (Human), UniProt Q9NWZ3)', 8.22),
  ('C[C@@H](CO)Nc1cc(Nc2ncc(C#N)cn2)ncc1C(=O)NC[C@@H](F)C(C)(C)O', 'IRAK4 (Homo sapiens (Human), UniProt Q9NWZ3)', 8.25),
  ('CC(C)Nc1cc(Nc2ncc(C#N)cc2F)ncc1C(=O)NC1CCC(O)(c2ccnn2C)CC1 (stereo not shown)', 'IRAK4 (Homo sapiens (Human), UniProt Q9NWZ3)', 8.09),
  ('Cc1cnc(Nc2cc(NC(C)C)c(C(=O)NC[C@@H](F)C(C)(C)O)cn2)c(F)c1', 'IRAK4 (Homo sapiens (Human), UniProt Q9NWZ3)', 7.80),
  ('CC(C)(O)[C@H](F)CNC(=O)c1cnc(Nc2ncc(C#N)cc2Cl)cc1NCC(F)(F)F', 'IRAK4 (Homo sapiens (Human), UniProt Q9NWZ3)', 8.54),
  ('CC(C)(O)[C@H](F)CNC(=O)c1cnc(Nc2ncncc2F)cc1NC1CC1', 'IRAK4 (Homo sapiens (Human), UniProt Q9NWZ3)', 7.92),
  ('CC(=O)N[C@H]1CC[C@H](NC(=O)c2cnc(Nc3ncc(C#N)cc3Cl)cc2NC2CC2)CC1', 'IRAK4 (Homo sapiens (Human), UniProt Q9NWZ3)', 8.14),
  ('CCNc1cc(Nc2ncc(C#N)cn2)ncc1C(=O)NC[C@@H](F)C(C)(C)O', 'IRAK4 (Homo sapiens (Human), UniProt Q9NWZ3)', 7.98),
  ('CC(C)(O)[C@H](F)CNC(=O)c1cnc(Nc2ncc(C#N)cc2Cl)cc1NC1CCCC1F (stereo partly shown) [Example 73]', 'IRAK4 (Homo sapiens (Human), UniProt Q9NWZ3)', 8.82),
  ('CC(C)Nc1cc(Nc2ncc(C#N)cc2Cl)ncc1C(=O)N[C@H]1CC[C@H](O)CC1', 'IRAK4 (Homo sapiens (Human), UniProt Q9NWZ3)', 7.90),
  ('Cc1cnc(Nc2cc(NC(C)C)c(C(=O)NC[C@@H](F)C(C)(C)O)cn2)nc1', 'IRAK4 (Homo sapiens (Human), UniProt Q9NWZ3)', 7.77),
  ('CC(C)Nc1cc(Nc2ccnc(NC3CCCOC3)n2)ncc1C(=O)NC[C@@H](F)C(C)(C)O (stereo partly shown)', 'IRAK4 (Homo sapiens (Human), UniProt Q9NWZ3)', 8.00),
  ('CS(=O)(=O)[C@H]1CC[C@H](NC(=O)c2cnc(Nc3ncc(C#N)cc3Cl)cc2NC2CCOCC2)CC1', 'IRAK4 (Homo sapiens (Human), UniProt Q9NWZ3)', 8.52),
  ('CC(C)Nc1cc(Nc2ncncc2N)ncc1C(=O)NC[C@@H](F)C(C)(C)O', 'IRAK4 (Homo sapiens (Human), UniProt Q9NWZ3)', 7.89),
  ('CNC(=O)[C@H]1CC[C@H](NC(=O)c2cnc(Nc3ncc(C#N)cc3Cl)cc2NC2CC2)CC1', 'IRAK4 (Homo sapiens (Human), UniProt Q9NWZ3)', 8.17),
  ('CC(C)(O)[C@H](F)CNC(=O)c1cnc(Nc2ncc(C#N)cc2F)cc1Nc1cccc(NS(C)(=O)=O)c1', 'IRAK4 (Homo sapiens (Human), UniProt Q9NWZ3)', 8.28),
  ('CC(=O)N[C@H]1CC[C@H](NC(=O)c2cnc(Nc3ncc(C#N)cc3Cl)cc2NC2CCOCC2)CC1', 'IRAK4 (Homo sapiens (Human), UniProt Q9NWZ3)', 8.11),
  ('CC(C)(O)[C@H](F)CNC(=O)c1cnc(Nc2ncc(C#N)cn2)cc1NC1CCC(F)C1 (stereo partly shown) [Example 88]', 'IRAK4 (Homo sapiens (Human), UniProt Q9NWZ3)', 8.27),
  ('CC(C)(O)[C@H](F)CNC(=O)c1cnc(Nc2ncc(C#N)cc2Cl)cc1NC1CCCC1O (stereo partly shown) [Example 78]', 'IRAK4 (Homo sapiens (Human), UniProt Q9NWZ3)', 8.43),
  ('CNC(=O)[C@H]1CC[C@H](NC(=O)c2cnc(Nc3ncc(C#N)cc3Cl)cc2NC(C)C)CC1', 'IRAK4 (Homo sapiens (Human), UniProt Q9NWZ3)', 8.20),
  ('CC(C)(O)[C@H](F)CNC(=O)c1cnc(Nc2ncc(C#N)cc2F)cc1Nc1cccc(S(N)(=O)=O)c1', 'IRAK4 (Homo sapiens (Human), UniProt Q9NWZ3)', 8.34),
  ('CC(C)(O)[C@H](F)CNC(=O)c1cnc(Nc2ncc(C#N)cc2F)cc1NC1CC1', 'IRAK4 (Homo sapiens (Human), UniProt Q9NWZ3)', 8.72),
  ('CC(C)(O)[C@H](F)CNC(=O)c1cnc(Nc2ncc(C#N)cc2Cl)cc1NC1CCC(F)C1 (stereo partly shown) [Example 158]', 'IRAK4 (Homo sapiens (Human), UniProt Q9NWZ3)', 8.64);
